System: ovarian cancer cells A2780
Type: cell-based, human
Condition Summary: 48 h
Bridges are numbered along the chain shown (N, C = ends). Roman numbers before positions name the chains, in order. [ ]: non-standard residue; d: D form.

{"Substance": "I: H-FLSGIVGML[dA]KLFKK-NH2 / II: H-FLSGIVGML[dA]KLF / III: H-FLSGIVGML[dA]KLF (amide I:14-III:C, I:15-II:C) [[G10a]3-SHa]", "Unit Name": "µM", "IC50": 2.31}

* * *

Method Notes: Hemolysis assay
Type: cell-based, human
Condition Summary: human; at 100 µM, 1 h, 37 °C, relative to Triton X-100 0.1%
Where no end group is shown, it is not given here.
Observation Type: hemolysis at 1 h, 100 µM (%)

{"Substance": "FLSGIVGMLGKLF-NH2 [Temporin SHa]", "Observation Type": "hemolysis at 1 h, 100 µM", "Numeric Result": 24.5}

This collection of values is drawn from paper PMC9221442.
